- assay.name: viability loss with induced miR-34 in A549 – imaging, A549 dox-inducible miR-34, nuclei and caspase counts, primary screen (AID 1347080)
- condition: A549 miR-34 inducible, Hoechst nuclei count, 48 h; measured here: total cells with miR-34 induction; stronger effect = lower value
measured.property: cell count
Numbers only.

Reference set, count: 5
molecule="COC(=O)C1C(O)CC[C@H]2CN3CCc4c([nH]c5ccccc45)[C@@H]3C[C@H]12 (stereo partly specified)" measured_property="cell count" readout_number=8840
molecule=O=C(C=Cc1ccc(O)cc1)c1ccc(O)cc1O measured_property="cell count" readout_number=8890
molecule=COc1ccc(CN(C)C(=O)Nc2nc(C)n(C)n2)c2cccnc12 measured_property="cell count" readout_number=8870
molecule=O=C(Nc1cccnc1)C1CCN(C(=O)c2ccccc2Cl)CC1 measured_property="cell count" readout_number=8890
molecule=COc1ccccc1C(=O)N1CCC(n2cc(-c3ccccn3)nn2)CC1 measured_property="cell count" readout_number=8760

cell count reading for Nc1[nH]c(=O)[nH]c(=O)c1N : 8900

* * *

- assay.name: drug combination growth inhibition, ovarian cancer – cell-based, oncology-focused library, rucaparib conditional, profiling panel (AID 1508598)
- condition: patient-derived ovarian cancer cells, CellTiter-Glo viability, 144 h; at 5 µM; OCI-P5x cells; without rucaparib; stronger effect = lower value
measured.property: viability (%)
Answers are plain numbers, in %.

Solved cases (6 shown):
smiles_notation=COc1cccc2c1C(=O)c1c(O)c3c(c(O)c1C2=O)C[C@@](O)(C(=O)CO)C[C@H]3O[C@H]1C[C@H](N)[C@H](O)[C@H](C)O1 measured_property=viability unit_spec=% readout_number=8.22
smiles_notation=COc1ccc(C2=N[C@H](c3ccc(Cl)cc3)[C@@H](c3ccc(Cl)cc3)N2C(=O)N2CCNC(=O)C2)c(OC(C)C)c1 measured_property=viability unit_spec=% readout_number=98.2
smiles_notation=CCNC(=O)c1noc(-c2cc(Cl)c(O)cc2O)c1-c1ccc(OC)cc1 measured_property=viability unit_spec=% readout_number=3.37
smiles_notation=COc1cc(C(=O)NC2CCN(C)CC2)ccc1Nc1ncc2c(n1)N(C1CCCC1)CC(F)(F)C(=O)N2C measured_property=viability unit_spec=% readout_number=17.9
smiles_notation=CCOc1ccc(Cc2cc([C@@H]3O[C@H](CO)[C@@H](O)[C@H](O)[C@@H]3O)ccc2Cl)cc1 measured_property=viability unit_spec=% readout_number=109
smiles_notation=C[C@]12CC[C@H]3c4ccc(O)cc4CC[C@H]3[C@@H]1CC[C@H]2O measured_property=viability unit_spec=% readout_number=110

Okay, now this molecule:
# molecule C[C@]12CCC(=O)C=C1CC[C@@H]1[C@H]2[C@H](O)C[C@@]2(C)[C@H]1CC[C@@]2(O)C(=O)CO ; its viability = 99.3

* * *

- assay.name: growth inhibition, single agents and combos, LFS_MB_1R, cell-based, cisplatin or BGB combos, synergistic combos for chromothripsis tumors (AID 1671452);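 also: cells exposed for 96 hours before readout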
- condition: LFS_MB_1R medulloblastoma cells, measured here: combination with cisplatin, at 5 µM, stronger effect = higher value
Exercise: for every item that follows, state its recorded inhibition.
Give bare numbers, in %.

smiles_notation=NC(=S)NN=Cc1ncccc1N unit_spec=% readout_number=-19.1

Provide inhibition values for the following items, in order.
1. O=C1N=c2ccccc2=C1c1c(O)[nH]c2ccccc12
2. COc1nc(N)nc2c1ncn2[C@@H]1O[C@H](CO)[C@@H](O)[C@H]1O

[104, -13.1]

* * *

- assay.name: galactose survival enhancers in mitochondrial complex I cybrids – cell-based, galactose medium, ATP luminescence, primary screen (AID 1645843);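 also: positive z means more ATP and so rescue of galactose-driven cybrid death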
- condition: complex I mutant cybrid cells, 72 h
Activity calls are given as the source filed them.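 Rule for the calls: active = z-score of at least 1.8 in each of two replicates, scored against plate mean and spread of sample wells; inactive = the rest.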
Give one outcome, nothing more. List: 1 (active), 0 (inactive)

Here's what some known entries look like.
molecule=O=C(C1CCCCCC1)N1CCC(n2cc(C3CCCCC3)nn2)CC1 answer_label=1
molecule=O=C(NCCCc1ccccc1)NC1CCCCC1 answer_label=0
molecule="O=C1NCCN(C(=O)c2ccc(Cl)c(F)c2)C1Cc1ccccc1 (centres undefined)" answer_label=0

Consider now this further molecule.
// param item: O=C(O)c1cnc(-c2ccccc2)[nH]1 ; yields the recorded call
0

* * *

- assay.name: viability loss with induced miR-34 in A549 – imaging, A549 dox-inducible miR-34, nuclei and caspase counts, primary screen (AID 1347080)
- condition: A549 miR-34 inducible, Hoechst nuclei count, 48 h; measured here: total cells with miR-34 induction; stronger effect = lower value
For each of the compounds below, state its cell count.
Give bare numbers.

Below are worked cases with known answers.
compound="C=CCc1ccccc1OCC(O)CN[C@]1(C)CCC[C@H](C(C)(C)NC(=O)CBr)C1 (stereo partly specified)" measured_property="cell count" readout_number=70
compound=O=C(O)c1cc(Br)ccc1NS(=O)(=O)c1ccc(Cl)cc1 measured_property="cell count" readout_number=8540

# batch: return cell count for each of the 5 compounds below
1. CCCCCCCCCC[Si](C)(C)CCC(=O)NC(Cc1ccc(C)cc1)c1ccccc1 (stereo unspecified)
2. CC(C)n1cc(-c2cc(C(=O)N(C)Cc3cccnc3)c3cc(F)ccc3n2)cn1
3. Cc1cc(C)nc(-c2cnn(CC(=O)Nc3cnn(C)n3)c2)n1
4. N#CC(C#N)=C(N)/C(C#N)=C/c1ccc2[nH]ccc2c1
5. O=C(O)c1ccc(B(O)O)cc1

1. 10100
2. 9060
3. 8470
4. 5080
5. 8340

Would you be so kind as to report cell count for each listed record?
1. Cn1nc(NC(=O)Cn2ccc(-c3ccco3)n2)c2ccccc21
2. O=C(NCCc1nc2ccc(F)cc2[nH]1)c1cnccn1
3. CC(C)[N+]1(C)[C@@H]2CC[C@H]1CC(OC(=O)C(CO)c1ccccc1)C2 (stereo partly specified)

7120
8500
10100

Report cell count for each item below.
1. CC(=O)c1sc(Nc2ccccc2)nc1C
2. c1cnc2c(c1)ccc1cccnc12
3. O=C1CN(c2ncnc3nc[nH]c23)CCN1Cc1cccc(F)c1

8310
2190
7800

I need cell count for every entry listed below, if you could help.
1. Nc1nc2c(ncn2C2OC(CO)C(O)C2O)c(=O)[nH]1 (stereo unspecified)
2. Cc1cc(C)nc(NS(=O)(=O)c2ccc(NC(=S)NC(=O)COc3ccc(Br)cc3Cl)cc2)n1
3. COc1cc(O)cc(C2CC(=O)c3c(O)cc(OC4OC(CO)C(O)C(O)C4OC4OC(C)C(O)C(O)C4O)cc3O2)c1 (stereo unspecified)
4. CCCCCCCCCCCCCCCCOC[C@H](CO)OC

[8140, 7550, 8090, 4770]

* * *

- assay.name: viability loss with induced miR-34 in A549 – imaging, A549 dox-inducible miR-34, nuclei and caspase counts, primary screen (AID 1347080)
- condition: A549 miR-34 inducible, Hoechst nuclei count, 48 h; measured here: total cells with miR-34 induction; stronger effect = lower value
Please use T for cell count under 8000 and F for everything else, ties included.

compound="CC(O)Cc1cn(C2CCN(c3ncnc4nc[nH]c34)CC2)nn1 (stereo not drawn)" answer_label=F
compound="CN1CCCC1Cc1c[nH]c2ccc(CCS(=O)(=O)c3ccccc3)cc12 (stereo not drawn)" answer_label=F
compound=CCCCCCOC(=O)N=C(N)c1ccc(NCc2nc3cc(C(=O)N(CCC(=O)OCC)c4ccccn4)ccc3n2C)cc1 answer_label=F

Is the reported cell count for O=C(O)CNC(=O)c1cccc(O)c1 strictly below 8000?
F

For COC1=C(OC)C(=O)c2ccccc2C1=O , is the recorded cell count below the cut-off of 8000?
T

* * *

- assay.name: growth inhibition, single agent or in combination, cell-based, chromothripsis tumors, cisplatin or BGB combos (AID 1671449);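 also: cells exposed for 96 hours; 0% = vehicle DMSO and 100% = killing by high DMSO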
- condition: LFS_MB_P medulloblastoma cells, measured here: combination with BGB IC40, at 0.005 µM
measured.property: inhibition (%)
Numbers only, in %.

compound="NC(=O)c1ncn(C2OC(CO)C(O)C2O)c1O (configuration not stated)" readout_number=-2.51

Could you report inhibition for every entry in the following list?
1. COc1nc(N)nc2c1ncn2[C@@H]1O[C@H](CO)[C@@H](O)[C@H]1O
2. O=C1N=c2ccccc2=C1c1c(O)[nH]c2ccccc12
3. Nc1ccccc1NC(=O)c1cnccn1
4. C[C@@H]1COCCN1c1cc(C2(S(C)(=O)=O)CC2)nc(-c2cccc3[nH]ccc23)n1
5. O=C1C(=Cc2cccnc2)C(=O)c2ccccc21

1: 9.31; 2: -11.2; 3: 85.5; 4: 5.5; 5: 67.5

Looking up COc1ccccc1S(=O)(=O)Nc1ccc2c(c1)CN(C)C(=O)N2 , I found its inhibition recorded as -46.6

* * *

- assay.name: galactose survival enhancers in mitochondrial complex I cybrids – cell-based, galactose medium, ATP luminescence, primary screen (AID 1645843);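 also: positive z means more ATP and so rescue of galactose-driven cybrid death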
- condition: complex I mutant cybrid cells, 72 h, stronger effect = higher value
measured.property: z-score
Numbers only.

compound=Cn1ccnc1C(=O)c1cccc(-c2ccccc2Cl)c1 readout_number=-0.515
compound=O=C(O)CSc1nnc(-c2ccc([N+](=O)[O-])o2)o1 readout_number=0.17
compound=Cc1cc(Cn2cnc3c2C[C@@H](C(=O)O)N(C(=O)C(c2ccccc2)c2ccccc2)C3)ccc1N readout_number=0.405
compound=CC(C)C[C@H]1C(=O)N2CCN(Cc3cnn(-c4ccccc4)c3)C[C@@H]2C(=O)N1C readout_number=-0.345
compound="Cc1ncsc1CCn1nc(C(=O)NC2CC2)c2c1CCN(C(=O)C1Cc3ccccc3O1)C2 (centres undefined)" readout_number=-0.18
compound="CN1C[C@H](C(=O)N[C@]2(C)O[C@@]3(O)[C@@H]4CCCN4C(=O)[C@H](Cc4ccccc4)N3C2=O)CC2c3cccc4[nH]cc(c34)C[C@H]21 (some centres undefined)" readout_number=0.325
compound=Cc1ccn2cc(C(=O)N3CCc4c(cc(-c5ccc(OC(F)(F)F)cc5)c(=O)n4C)C3)nc2c1 readout_number=1.4
compound="CC(C)CCC(=O)N1CCCCC1CCc1ccc(O)cc1 (centres undefined)" readout_number=-0.375

Here's the next entry for you.
Please fill in: z-score reported for Cc1cccc(C)c1OCC(=O)O = 0.75
